# method.description: Volume of distribution at steady state in dog at 1 mg/kg, iv and 5 mg/kg, po
# Format: ADME, organism-based, Canis lupus familiaris
# condition.summary: in vivo, read-out: Vdss
parameter: Vd
I'd appreciate it if you wrote the number followed by its unit.

For the compound "Cc1ccc(-c2cccc(CO)c2)nc1C(=O)Nc1c(C)ccc(C(=O)O)c1C" , what Vd is on record?
0.97 L/kg

---

# test.system: Cytochrome P450 2D6 (Homo sapiens, UniProt P10635)
# Sequence (P10635 whole entry): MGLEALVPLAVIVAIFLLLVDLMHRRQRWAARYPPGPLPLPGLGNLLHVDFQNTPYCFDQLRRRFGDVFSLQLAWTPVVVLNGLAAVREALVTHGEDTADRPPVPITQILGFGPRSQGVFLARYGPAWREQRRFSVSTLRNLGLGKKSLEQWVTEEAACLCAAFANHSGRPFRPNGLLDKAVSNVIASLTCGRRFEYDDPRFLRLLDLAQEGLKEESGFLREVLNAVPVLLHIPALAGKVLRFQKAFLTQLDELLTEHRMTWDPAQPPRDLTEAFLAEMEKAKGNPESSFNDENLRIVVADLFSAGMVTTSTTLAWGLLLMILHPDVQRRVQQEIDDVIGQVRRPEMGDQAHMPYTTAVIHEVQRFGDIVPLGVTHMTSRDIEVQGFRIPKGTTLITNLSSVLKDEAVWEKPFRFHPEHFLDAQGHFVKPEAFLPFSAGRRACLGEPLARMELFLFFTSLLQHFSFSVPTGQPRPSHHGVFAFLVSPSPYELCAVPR
parameter: IC50

For the compound "Cc1ccc(-c2cccc(CO)c2)nc1C(=O)Nc1c(C)ccc(C(=O)O)c1C" , what IC50 is on record?
> 10 µM

---

# method.description: Clearance in rat at 1 mg/kg, iv
# Assay type: ADME, organism-based
# condition.summary: in vivo
Measured clearance values are reported for all entries that follow.
Report the figure in L/h/kg without appending any unit label.

{"entry.smiles": "Cc1ccc(-c2cccc(CO)c2)cc1C(=O)Nc1c(C)cc(C(=O)O)cc1C", "reading.unit": "L/h/kg", "clearance": 4.26}
{"entry.smiles": "Cc1ccc(-c2cccc(CO)c2)cc1C(=O)Nc1c(C)ccc(C(=O)O)c1C", "reading.unit": "L/h/kg", "clearance": 0.9}
{"entry.smiles": "Cc1ccc(-c2cccc(CO)c2)nc1C(=O)Nc1c(C)ccc(C(=O)O)c1C", "reading.unit": "L/h/kg", "clearance": 0.132}
{"entry.smiles": "Cc1cc(C(=O)O)cc(C)c1NC(=O)c1cc(-c2cccc(CO)c2)ccc1F", "reading.unit": "L/h/kg", "clearance": 5.46}
{"entry.smiles": "Cc1cc(C(=O)O)cc(C)c1NC(=O)c1nc(-c2cccc(CO)c2)ccc1C(F)(F)F", "reading.unit": "L/h/kg", "clearance": 3.24}

For the molecule "Cc1ccc(C(=O)O)c(C)c1NC(=O)c1nc(-c2cccc(CO)c2)ccc1C(F)(F)F" , what clearance is on record?
0.42

Moving on to "Cc1ccc(-c2cccc(CO)c2)nc1C(=O)Nc1c(C)cc(C(=O)O)cc1C"
0.42

---

# test.system: Prostaglandin E2 receptor EP2 subtype (Homo sapiens, UniProt P43116)
# Sequence (P43116 whole entry): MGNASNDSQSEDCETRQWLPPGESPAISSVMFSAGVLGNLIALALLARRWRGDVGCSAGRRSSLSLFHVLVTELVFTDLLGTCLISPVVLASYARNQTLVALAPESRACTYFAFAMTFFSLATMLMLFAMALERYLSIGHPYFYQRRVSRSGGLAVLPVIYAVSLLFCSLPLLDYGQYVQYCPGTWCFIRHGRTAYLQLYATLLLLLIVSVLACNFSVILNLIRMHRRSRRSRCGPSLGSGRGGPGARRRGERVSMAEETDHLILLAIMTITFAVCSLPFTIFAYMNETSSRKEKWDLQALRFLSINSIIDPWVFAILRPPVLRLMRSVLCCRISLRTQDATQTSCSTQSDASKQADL
pKi: −log10 of the molar value.
parameter: pKi

For the compound "Cc1ccc(-c2cccc(CO)c2)nc1C(=O)Nc1c(C)ccc(C(=O)O)c1C" , what pKi is on record?
< 4.72

---

# method.description: AUC in rat at 5 mg/kg, po
# Assay type: ADME, organism-based
# condition.summary: in vivo
Measured AUC values are reported for all entries that follow.
Report the figure in ng·h/mL without appending any unit label.

// known answers, use as guide
{"entry.smiles": "Cc1cc(C(=O)O)cc(C)c1NC(=O)c1nc(-c2cccc(CO)c2)ccc1C(F)(F)F", "value": 243}
{"entry.smiles": "Cc1ccc(C(=O)O)c(C)c1NC(=O)c1nc(-c2cccc(CO)c2)ccc1C(F)(F)F", "value": 1540}
{"entry.smiles": "Cc1cc(C(=O)O)cc(C)c1NC(=O)c1cc(-c2cccc(CO)c2)ccc1F", "value": 105}
{"entry.smiles": "Cc1ccc(-c2cccc(CO)c2)nc1C(=O)Nc1c(C)cc(C(=O)O)cc1C", "value": 4330}
{"entry.smiles": "Cc1ccc(-c2cccc(CO)c2)nc1C(=O)Nc1c(C)ccc(C(=O)O)c1C", "value": 8520}

For the compound "Cc1ccc(-c2cccc(CO)c2)cc1C(=O)Nc1c(C)cc(C(=O)O)cc1C" , what AUC is on record?
88

Moving on to "Cc1ccc(-c2cccc(CO)c2)cc1C(=O)Nc1c(C)ccc(C(=O)O)c1C"
375

---

# test.system: L-type calcium channel, diltiazem binding site (Homo sapiens, UniProt O60840+Q01668+Q13698+Q13936)
# method.description: Inhibition of L-type calcium channel diltiazem binding site (unknown origin) at 10 uM
# Type: protein assay
parameter: inhibition at 10 µM (%)
Report the figure in % without appending any unit label.

For the compound "Cc1ccc(-c2cccc(CO)c2)nc1C(=O)Nc1c(C)ccc(C(=O)O)c1C" , what inhibition at 10 µM is on record?
-7

---

# method.description: Half life in rat at 5 mg/kg, po
# Format: ADME, organism-based
# condition.summary: in vivo
parameter: half-life (h)
Report the figure in h without appending any unit label.

For the compound "Cc1ccc(-c2cccc(CO)c2)nc1C(=O)Nc1c(C)ccc(C(=O)O)c1C" , what half-life is on record?
2.1

---

# test.system: Cytochrome P450 2B6 (Homo sapiens)
# Sequence (P20813 whole entry): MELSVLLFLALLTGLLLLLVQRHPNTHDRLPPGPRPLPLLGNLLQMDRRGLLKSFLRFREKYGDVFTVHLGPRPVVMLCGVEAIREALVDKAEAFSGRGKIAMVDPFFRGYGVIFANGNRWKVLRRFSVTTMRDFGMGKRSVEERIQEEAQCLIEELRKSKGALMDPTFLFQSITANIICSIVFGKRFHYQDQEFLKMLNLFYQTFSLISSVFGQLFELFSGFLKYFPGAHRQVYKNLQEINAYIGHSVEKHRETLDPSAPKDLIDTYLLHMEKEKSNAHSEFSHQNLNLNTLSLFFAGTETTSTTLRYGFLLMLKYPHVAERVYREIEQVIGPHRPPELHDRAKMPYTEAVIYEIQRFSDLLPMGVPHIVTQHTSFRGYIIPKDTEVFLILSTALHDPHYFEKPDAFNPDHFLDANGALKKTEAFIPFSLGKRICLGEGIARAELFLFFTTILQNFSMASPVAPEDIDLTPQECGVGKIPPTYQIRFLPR
parameter: IC50

For the compound "Cc1ccc(-c2cccc(CO)c2)nc1C(=O)Nc1c(C)ccc(C(=O)O)c1C" , what IC50 is on record?
> 10 µM
